# Lookup of reported selectivity ratio keyed by entry
Experiment: Selectivity index, ratio of IC50 for rat L6 cells to IC50 for axenic amastigote forms of Leishmania donovani MHOM/ET/67/L82
Assay type: toxicity, cell-based
Details: read-out: Ratio IC50

> print(dat)
                                  smilesstr  readoutvalue
1  O=[N+]([O-])c1ncn(CCCNS(=O)(=O)c2cc(Cl)c(Cl)s2)n1             8
2  O=[N+]([O-])c1ncn(CCCCNS(=O)(=O)c2ccc(Cl)s2)n1             6
3     O=C(NCCCn1cnc([N+](=O)[O-])n1)c1ccsc1           > 5

Asked: Recall and state the measured selectivity ratio for O=[N+]([O-])c1nccn1CCCNS(=O)(=O)c1cc(Cl)c(Cl)s1 .
Given back: 10

Asked: Look up and state reported selectivity ratio for Cc1ccoc1C(=O)NCCCn1cnc([N+](=O)[O-])n1
Given back: > 3

Asked: Recall and state the measured selectivity ratio for O=[N+]([O-])c1nccn1CCCNS(=O)(=O)c1cc(Cl)sc1Cl .
Given back: 8

Asked: Fill in selectivity ratio for record O=[N+]([O-])c1ncn(CCCNS(=O)(=O)c2ccc(Cl)s2)n1
Given back: 7

Asked: Give a short answer stating reported selectivity ratio for O=[N+]([O-])c1ncn(CCCNS(=O)(=O)c2cc(Cl)sc2Cl)n1 .
Given back: 7

Asked: Given O=C(NCCCCn1cnc([N+](=O)[O-])n1)c1ccsc1 , respond with its selectivity ratio.
Given back: > 12

Asked: For the compound O=C(NCCCCn1cnc([N+](=O)[O-])n1)c1sc2ccccc2c1Cl , give its reported selectivity ratio.
Given back: > 23

Asked: Provide only the value of recorded selectivity ratio for O=C(NCCCn1cnc([N+](=O)[O-])n1)c1cc2ccccc2s1
Given back: 8

* * *

pIC50 listing for selected compounds.
Tested on: Trypanosoma cruzi
Test: Antiparasitic activity against trypomastigote forms of Trypanosoma cruzi Tulahuen C2C4 infected in rat L6 cells assessed as inhibition of growth after 96 hrs by inverted microscopy
Type: functional, organism-based
Details: Tulahuen C2C4, L6, 96 h
Friendly reminder that pIC50 comes from taking -log10 of the concentration in mol/L.

Look over these answered cases.
> print(dat)
                                   smilesstr  readoutvalue
 1  O=[N+]([O-])c1ncn(CCCCNS(=O)(=O)c2cc(Cl)c(Cl)s2)n1          6.43
 2  O=C(NCCCCn1cnc([N+](=O)[O-])n1)c1nc2ccccc2s1          6.37
 3  O=[N+]([O-])c1ncn(CCCCNS(=O)(=O)c2ccc(Cl)s2)n1          6.34
 4  O=[N+]([O-])c1nccn1CCCNS(=O)(=O)c1cc(Cl)sc1Cl          5.16
 5  O=[N+]([O-])c1ncn(CCCNS(=O)(=O)c2cc(Cl)sc2Cl)n1          6.26
 6  Cc1nc([N+](=O)[O-])cn1CCCNS(=O)(=O)c1ccc(Cl)s1          3.99
 7  O=[N+]([O-])c1nccn1CCCNS(=O)(=O)c1cc(Cl)c(Cl)s1          5.32
 8  Cc1cc(C(=O)NCCCn2cnc([N+](=O)[O-])n2)c(C)o1          5.05
 9    O=C(NCCCCn1cnc([N+](=O)[O-])n1)c1ccsc1          5.76
10     O=C(NCCCn1cnc([N+](=O)[O-])n1)c1ccsc1          5.40

Asked: // output pIC50; input Cc1nc([N+](=O)[O-])cn1CCCNC(=O)c1sc2ccccc2c1Cl ; system Trypanosoma cruzi
Given back: 4.49

Asked: Check Trypanosoma cruzi data and give pIC50 for O=[N+]([O-])c1ncn(CCCNS(=O)(=O)c2cc(Cl)c(Cl)s2)n1 .
Given back: 6.80

Asked: Check Trypanosoma cruzi data and give pIC50 for O=C(NCCCn1cnc([N+](=O)[O-])n1)c1cc2ccccc2s1 .
Given back: 6.53

Asked: Enter pIC50 (test system Trypanosoma cruzi) for O=C(NCCCn1cnc([N+](=O)[O-])n1)c1ccnc(Cl)c1
Given back: 4.87

* * *

Test system: L6
Test: Cytotoxicity against rat L6 cells after 72 hrs by alamar blue assay
Format: cell-based
Details: L6, 72 h
measureName: IC50

// worked examples, IC50 included
> print(dat)
                                  smilesstr  readoutvalue
1  O=C(NCCCCn1cnc([N+](=O)[O-])n1)c1sc2ccccc2c1Cl      > 264 µM
2  Cc1nc([N+](=O)[O-])cn1CCCNC(=O)c1nc2ccccc2s1      > 290 µM
3    Cc1ccoc1C(=O)NCCCn1cnc([N+](=O)[O-])n1      > 358 µM

Alright, here's another molecule for you.
Asked: Give the value of IC50 reported for the following: Cc1cc(C(=O)NCCCn2cnc([N+](=O)[O-])n2)c(C)o1
Given back: > 341 µM

* * *

Test system: L6
Assay: Cytotoxicity against rat L6 cells after 72 hrs by alamar blue assay
Format: cell-based
Details: L6, 72 h
measureName: IC50

Some compounds with recorded IC50:
> print(dat)
                                  smilesstr  readoutvalue
1     O=C(NCCCn1cnc([N+](=O)[O-])n1)c1ccsc1      > 356 µM
2    O=C(NCCCCn1cnc([N+](=O)[O-])n1)c1ccsc1      > 339 µM
3  O=C(NCCCn1cnc([N+](=O)[O-])n1)c1ccc(C(F)(F)F)nc1      > 291 µM

Field: next compound
Asked: Give recorded IC50. O=C(NCCCn1cnc([N+](=O)[O-])n1)c1ccnc(Cl)c1
Given back: > 322 µM

* * *

Experiment: Selectivity index, ratio of IC50 for rat L6 cells to IC50 for trypomastigote forms of Trypanosoma cruzi Tulahuen C2C4 infected in rat L6 cells
Format: toxicity, cell-based
Conditions: read-out: Ratio IC50
measureName: selectivity ratio

> print(dat)
                                  smilesstr        measurename  readoutvalue
1  Cc1cc(C(=O)NCCCn2cnc([N+](=O)[O-])n2)c(C)o1  selectivity ratio          > 39

Asked: Tell me measured selectivity ratio for Cc1nc([N+](=O)[O-])cn1CCCNC(=O)c1nc2ccccc2s1 please.
Given back: > 3

Asked: Consider the molecule Cc1ccoc1C(=O)NCCCn1cnc([N+](=O)[O-])n1 and give its recorded selectivity ratio.
Given back: > 12

Asked: Return value of selectivity ratio for input O=C(NCCCn1cnc([N+](=O)[O-])n1)c1ccnc(Cl)c1 , no commentary.
Given back: > 24

Asked: Could you please provide reported selectivity ratio for O=C(NCCCCn1cnc([N+](=O)[O-])n1)c1ccsc1 ? Thanks!
Given back: > 194

Asked: Give the reported selectivity ratio for this molecule. O=C(NCCCn1cnc([N+](=O)[O-])n1)c1ccc(C(F)(F)F)nc1
Given back: > 84

Asked: Provide measured selectivity ratio value, entry: O=C(NCCCn1cnc([N+](=O)[O-])n1)c1ccsc1
Given back: > 89

* * *

# selectivity ratio annotations
Test: Selectivity index, ratio of IC50 for rat L6 cells to IC50 for bloodstream forms of Trypanosoma brucei rhodesiense STIB 900
Assay type: toxicity, cell-based
Conditions: read-out: Ratio IC50
Just the number, please, no unit attached.

> print(dat)
                                  smilesstr        measurename  readoutvalue
1  Cc1nc([N+](=O)[O-])cn1CCCNS(=O)(=O)c1ccc(Cl)s1  selectivity ratio             6

Asked: Annotate the molecule O=[N+]([O-])c1ncn(CCCNS(=O)(=O)c2ccc(Cl)s2)n1 with its measured selectivity ratio.
Given back: 122

Asked: Look up selectivity ratio of O=[N+]([O-])c1ncn(CCCNS(=O)(=O)c2cc(Cl)sc2Cl)n1 and report it.
Given back: 75

Asked: // Input: O=[N+]([O-])c1nccn1CCCNS(=O)(=O)c1cc(Cl)sc1Cl . Output its selectivity ratio only.
Given back: 3

* * *

Tested on: Trypanosoma cruzi
Assay: Antiparasitic activity against trypomastigote forms of Trypanosoma cruzi Tulahuen C2C4 infected in rat L6 cells assessed as inhibition of growth after 96 hrs by inverted microscopy
Type: functional, organism-based
Settings: Tulahuen C2C4, L6, 96 h
# key: entry, value: IC50
Write it as a number; the unit µM goes unstated.

Completed entries (count: 2):
> print(dat)
                                  smilesstr  unitofmeasurement  readoutvalue
1  O=C(NCCCn1cnc([N+](=O)[O-])n1)c1ccc(C(F)(F)F)nc1                 µM          3.46
2  Cc1nc([N+](=O)[O-])cn1CCCNC(=O)c1nc2ccccc2s1                 µM           105

We next turn to a different compound, shown below.
Asked: Look up and state reported IC50 for O=[N+]([O-])c1ncn(CCCNS(=O)(=O)c2ccc(Cl)s2)n1
Given back: 0.438
